Test: Stability in acidic medium, monitored by HPLC
Type: physicochemical
Conditions: 0.1 N aq. HCl/MeOH (2/1 v/v), room temperature, 16 h
Method: A sample of a test compound (1.2 mg) was dissolved in 0.1 N aq. HCl/MeOH (2/1 v/v, 4 mL) at room temperature. The degradation of the test compound was monitored by HPLC. The percentage of the test compound remaining was calculated using the peak area % in HPLC.
endpoint.label: percentage of test compound remaining (HPLC peak area %)

• CO[C@@H]1[C@@H](O)[C@@H](O)[C@H](Oc2ccc(C(F)(F)CNC(C)=O)c(-c3cccc(F)c3)c2)OC1(C)C [T12] = 92.3
• CNC(=O)CCc1ccc(O[C@@H]2OC(C)(C)[C@H](OC)[C@@H](O)[C@H]2O)cc1-c1cccc(F)c1 [T57] = 86.4
• CC(=O)NCCc1ccc(O[C@H]2O[C@H](C)[C@@H](O)[C@H](O)[C@@H]2O)cc1-c1cccc(F)c1 [T54] = 101.1
• CC(=O)NCCc1ccc(O[C@@H]2OC(C)(C)[C@H](O)[C@@H](O)[C@H]2O)cc1-c1cccc(F)c1 [T3] = 92.2
• CO[C@@H]1[C@@H](O)[C@@H](O)[C@H](Oc2ccc(CCNC(C)=O)c(-c3cccc(F)c3)c2)O[C@H]1C [T2] = 100.2
• CNC(=O)CCc1ccc(O[C@@H]2O[C@@H](C)[C@H](OC)[C@@H](O)[C@H]2O)cc1-c1cccc(F)c1 [T11] = 100.9
• CO[C@@H]1[C@@H](O)[C@@H](O)[C@H](Oc2ccc(CCNC(C)=O)c(-c3cccc(F)c3)c2)OC1(C)C [T0, reference compound] = 87.3

###

Test: Stability in acidic medium, monitored by HPLC
Assay type: physicochemical
Details: 0.1 N aq. HCl/MeOH (2/1 v/v), room temperature, 12 h
endpoint.label: percentage of test compound remaining (HPLC peak area %)

• CO[C@@H]1[C@@H](O)[C@@H](O)[C@H](Oc2ccc(CCNC(C)=O)c(-c3cccc(F)c3)c2)O[C@H]1C = 99.8
• CC(=O)NCCc1ccc(O[C@@H]2OC(C)(C)[C@H](OC(F)F)[C@@H](O)[C@H]2O)cc1-c1cccc(F)c1 = 97.6
• CC(=O)NCCc1ccc(O[C@H]2O[C@H](C)[C@@H](O)[C@H](O)[C@@H]2O)cc1-c1cccc(F)c1 = 101.0
• CC(=O)NCCc1ccc(O[C@@H]2O[C@@H](C)[C@H](O)[C@@H](O)[C@H]2O)cc1-c1cccc(F)c1 = 100.5
• CO[C@@H]1[C@@H](O)[C@@H](O)[C@H](Oc2ccc(CCNC(C)=O)c(-c3cccc(F)c3)c2)OC1(C)C [T0, reference compound] = 90.5
• CO[C@@H]1[C@@H](O)[C@@H](O)[C@@H](Oc2ccc(CCNC(C)=O)c(-c3cccc(F)c3)c2)OC1(C)C = 91.9

###

Experiment: Stability in acidic medium, monitored by HPLC
Format: physicochemical
Details: 0.1 N aq. HCl/MeOH (2/1 v/v), room temperature, 24 h
endpoint.label: percentage of test compound remaining (HPLC peak area %)

- CC(=O)NCCc1ccc(O[C@H]2O[C@H](C)[C@@H](O)[C@H](O)[C@@H]2O)cc1-c1cccc(F)c1: 101.2
- CO[C@@H]1[C@@H](O)[C@@H](O)[C@@H](Oc2ccc(CCNC(C)=O)c(-c3cccc(F)c3)c2)OC1(C)C: 84.4
- CC(=O)NCCc1ccc(O[C@@H]2O[C@@H](CO)[C@H](O)[C@@H](O)[C@H]2O)cc1-c1cccc(F)c1: 97.4
- CC(=O)NCCc1ccc(O[C@@H]2OC(C)(C)[C@H](OC(F)F)[C@@H](O)[C@H]2O)cc1-c1cccc(F)c1: 95.7
- CNC(=O)CCc1ccc(O[C@@H]2OC(C)(C)[C@H](OC)[C@@H](O)[C@H]2O)cc1-c1cccc(F)c1: 79.3
- CNC(=O)CCc1ccc(O[C@@H]2O[C@@H](C)[C@H](OC)[C@@H](O)[C@H]2O)cc1-c1cccc(F)c1: 102.1
- CC(=O)NCCc1ccc(O[C@@H]2O[C@@H](C)[C@H](O)[C@@H](O)[C@H]2O)cc1-c1cccc(F)c1: 100.4
- CO[C@@H]1[C@@H](O)[C@@H](O)[C@H](Oc2ccc(CCNC(C)=O)c(-c3cccc(F)c3)c2)OC1(C)C [T0, reference compound]: 81.8

###

Experiment: Stability in acidic medium, monitored by HPLC
Type: physicochemical
Details: 0.1 N aq. HCl/MeOH (2/1 v/v), room temperature, 0 h
endpoint.label: percentage of test compound remaining (HPLC peak area %)

* CO[C@@H]1[C@@H](O)[C@@H](O)[C@H](Oc2ccc(C(F)(F)CNC(C)=O)c(-c3cccc(F)c3)c2)O[C@H]1C | 100.0
* CO[C@@H]1[C@@H](O)[C@@H](O)[C@@H](Oc2ccc(CCNC(C)=O)c(-c3cccc(F)c3)c2)OC1(C)C | 100.0
* CC(=O)NCCc1ccc(O[C@@H]2O[C@@H](CO)[C@H](O)[C@@H](O)[C@H]2O)cc1-c1cccc(F)c1 | 100.0
* CC(=O)NCCc1ccc(O[C@@H]2OC(C)(C)[C@H](OC(F)F)[C@@H](O)[C@H]2O)cc1-c1cccc(F)c1 | 100.0
* CNC(=O)CCc1ccc(O[C@@H]2O[C@@H](C)[C@H](OC)[C@@H](O)[C@H]2O)cc1-c1cccc(F)c1 | 100.0
* CC(=O)NCCc1ccc(O[C@@H]2O[C@@H](C)[C@H](O)[C@@H](O)[C@H]2O)cc1-c1cccc(F)c1 | 100.0
* CO[C@@H]1[C@@H](O)[C@@H](O)[C@H](Oc2ccc(CCNC(C)=O)c(-c3cccc(F)c3)c2)OC1(C)C [T0, reference compound] | 100.0
* CC(=O)NCCc1ccc(O[C@@H]2OC(C)(C)[C@H](O)[C@@H](O)[C@H]2O)cc1-c1cccc(F)c1 | 100.0
* CC(=O)NCCc1ccc(O[C@H]2O[C@H](C)[C@@H](O)[C@H](O)[C@@H]2O)cc1-c1cccc(F)c1 | 100.0
* CC(=O)NCCc1ccc(O[C@@H]2O[C@@H](C)[C@@H](O)[C@@H](O)[C@@H]2O)cc1-c1cccc(F)c1 | 100.0

###

Assay: Stability in acidic medium, monitored by HPLC
Assay type: physicochemical
Settings: 0.1 N aq. HCl/MeOH (2/1 v/v), room temperature, 20 h
Method: A sample of a test compound (1.2 mg) was dissolved in 0.1 N aq. HCl/MeOH (2/1 v/v, 4 mL) at room temperature. The degradation of the test compound was monitored by HPLC. The percentage of the test compound remaining was calculated using the peak area % in HPLC.
endpoint.label: percentage of test compound remaining (HPLC peak area %)

Consider the following illustrative entries.
• CC(=O)NCCc1ccc(O[C@@H]2OC(C)(C)[C@H](OC(F)F)[C@@H](O)[C@H]2O)cc1-c1cccc(F)c1 = 96.0
• CNC(=O)CCc1ccc(O[C@@H]2OC(C)(C)[C@H](OC)[C@@H](O)[C@H]2O)cc1-c1cccc(F)c1 = 82.5
• CC(=O)NCCc1ccc(O[C@H]2O[C@H](C)[C@@H](O)[C@H](O)[C@@H]2O)cc1-c1cccc(F)c1 = 101.3
• CO[C@@H]1[C@@H](O)[C@@H](O)[C@H](Oc2ccc(CCNC(C)=O)c(-c3cccc(F)c3)c2)O[C@H]1C = 99.9
• CC(=O)NCCc1ccc(O[C@@H]2OC(C)(C)[C@H](O)[C@@H](O)[C@H]2O)cc1-c1cccc(F)c1 = 90.2

[1] CC(=O)NCCc1ccc(O[C@@H]2OC(C)(C)[C@H](OCc3ccccc3)[C@@H](O)[C@H]2O)cc1-c1cccc(F)c1
[2] CC(=O)NCCc1ccc(O[C@@H]2O[C@@H](C)[C@@H](O)[C@@H](O)[C@@H]2O)cc1-c1cccc(F)c1
# min-compare on percentage of test compound remaining (HPLC peak area %) between 1 and 2 State the label of the item chosen. 1

###

Test: Stability in acidic medium, monitored by HPLC
Type: physicochemical
Conditions: 0.1 N aq. HCl/MeOH (2/1 v/v), room temperature, 12 h
endpoint.label: percentage of test compound remaining (HPLC peak area %)

* CO[C@@H]1[C@@H](O)[C@@H](O)[C@H](Oc2ccc(C(F)(F)CNC(C)=O)c(-c3cccc(F)c3)c2)O[C@H]1C | 100.3
* CC(=O)NCCc1ccc(O[C@@H]2OC(C)(C)[C@H](O)[C@@H](O)[C@H]2O)cc1-c1cccc(F)c1 | 94.1
* CC(=O)NCCc1ccc(O[C@@H]2O[C@@H](C)[C@@H](O)[C@@H](O)[C@@H]2O)cc1-c1cccc(F)c1 | 98.5
* CC(=O)NCCc1ccc(O[C@@H]2OC(C)(C)[C@H](OCc3ccccc3)[C@@H](O)[C@H]2O)cc1-c1cccc(F)c1 | 78.8

Just for reference, patent US11827664B2 is where these values come from.
